B1: TPD52L2 (parent)
chain: EAEEEELRAELTKVEEEIVTLRQV

Variants of: B1
Experiment: protein stability index of a GFP-peptide fusion (GPS, HEK-293T) (PSI 1-6); higher = more stable;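 also: lentivirally expressed fusions sorted by FACS into six bins by GFP to DsRed ratio, PSI derived from sequencing read proportions per bin multiplied by bin number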
Conditions: c terminus: a fixed tail appended
Kind request: treat 4 as inclusive, so protein stability index at 4 or higher is Satisfied, anything lower is Not satisfied.

[[record]]
mutation_annotation = "L11Y"
class_name = "Satisfied"

[[record]]
mutation_annotation = "R22S"
class_name = "Satisfied"

[[record]]
mutation_annotation = "E5V"
class_name = "Not satisfied"

[[record]]
mutation_annotation = "L21C"
class_name = "Satisfied"

[[record]]
mutation_annotation = "V19T"
class_name = "Satisfied"

[[record]]
mutation_annotation = "V14F"
class_name = "Satisfied"


Challenge: Form field: protein stability index at least 4? Entry: `L21G`
Response given: Satisfied

Challenge: Form field: protein stability index at least 4? Entry: `V14I`
Response given: Not satisfied

Challenge: In plain terms: is recorded protein stability index at least 4 for `E4W` ?
Response given: Not satisfied

Challenge: Hello, I need to know if `E6K` has measured protein stability index not below 4. Thanks!
Response given: Not satisfied

Challenge: Could you verify whether the entry `E17G` shows protein stability index of no less than 4?
Response given: Satisfied

Challenge: Identify whether the reported protein stability index of the following variant is 4 or greater: `E3C`
Response given: Not satisfied

Challenge: Check the entry `R8G` : does protein stability index equal or exceed 4?
Response given: Satisfied

Challenge: Test whether the variant `T20H` records protein stability index of 4 or higher.
Response given: Not satisfied

Challenge: Does the variant `V19E` have recorded protein stability index that is 4 or more?
Response given: Satisfied

Challenge: API: above_or_equal(metric=protein stability index, cutoff=4) for item `R22V`
Response given: Not satisfied

Challenge: Is protein stability index at least 4? Consider `E3R`
Response given: Not satisfied

Challenge: Please check the record `I18T` and state if its protein stability index is at or above 4.
Response given: Satisfied
